- ASSAY_SYSTEM: full-length human RORγt (Homo sapiens (Human), UniProt P51449)
- Sequence (P51449 other isoform, or with tags, fused parts or gaps): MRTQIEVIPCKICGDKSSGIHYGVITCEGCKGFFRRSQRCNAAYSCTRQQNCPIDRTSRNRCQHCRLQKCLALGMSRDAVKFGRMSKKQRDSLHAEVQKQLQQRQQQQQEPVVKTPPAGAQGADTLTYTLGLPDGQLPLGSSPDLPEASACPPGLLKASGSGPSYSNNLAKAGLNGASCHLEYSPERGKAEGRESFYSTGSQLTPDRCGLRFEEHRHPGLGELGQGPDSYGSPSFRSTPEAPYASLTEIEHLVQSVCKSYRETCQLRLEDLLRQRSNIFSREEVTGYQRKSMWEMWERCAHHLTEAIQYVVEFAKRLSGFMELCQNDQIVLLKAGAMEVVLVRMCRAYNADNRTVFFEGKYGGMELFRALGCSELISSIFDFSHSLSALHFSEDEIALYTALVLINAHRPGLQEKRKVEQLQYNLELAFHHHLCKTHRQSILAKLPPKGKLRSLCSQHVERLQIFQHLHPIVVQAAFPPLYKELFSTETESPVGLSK
- ASSAY_DETAILS: RORγt (full-length human) reporter assay, conditions A or B, HEK293T cells
- Format: cell-based
- STATED_CONDITIONS: RORγt (FL) Reporter Assay A or B, IC50, HEK293T cells
Hi there, I'd appreciate the recorded IC50 for every entry that follows.
Form field: result (number plus unit)

Answered examples (8):
CCn1nc(C(=O)NC[C@H]2CC[C@H](S(C)(=O)=O)CC2)c(Cl)c1-c1ccc(N[C@H](C)C(F)(F)F)cc1OC [Example 23]    28 nM
CCn1nc(C(=O)NC[C@H]2CC[C@H](S(C)(=O)=O)CC2)c(Cl)c1-c1ccc(N[C@H](C)C(F)(F)F)cc1C(F)(F)F [Example 172]    28 nM
CCn1nc(C(=O)NC[C@]2(O)CC[C@@H](S(C)(=O)=O)CC2)c(Cl)c1-c1ccc(CCC(F)(F)F)cc1F [Example 180]    66 nM
CCn1nc(C(=O)NC[C@H]2CC[C@H](S(C)(=O)=O)CC2)c(Cl)c1-c1ccc(NC(C(F)(F)F)C(F)(F)F)cc1OC [Example 216]    28 nM
CCn1nc(C(=O)NC[C@]2(O)CC[C@@H](S(C)(=O)=O)CC2)c(Cl)c1-c1ccc(CCC(F)(F)F)cc1Cl [Example 173]    28 nM
CCn1nc(C(=O)NC[C@]2(O)CC[C@@H](S(C)(=O)=O)C[C@H]2O)c(Cl)c1-c1ccc(C[C@@H](C)C(F)(F)F)cc1OC(F)F (stereo in doubt) [Example 137]    4.8 nM
CCn1nc(C(=O)NC[C@H]2CC[C@H](S(C)(=O)=O)CC2)c(Cl)c1-c1ccc(OCCC(F)(F)F)cc1OC [Example 213]    77 nM
Cn1nc(C(=O)NC[C@]2(O)CC[C@@H](S(C)(=O)=O)CC2)c(Cl)c1-c1ccc(CCCC(F)(F)F)cc1OC(F)F [Example 158]    3.4 nM

Batch of 5 compounds: report IC50 for each.
1. CCn1nc(C(=O)NC[C@]2(C#N)CC[C@@H](S(C)(=O)=O)CC2)c(Cl)c1-c1ccc(CC(C)(C)C(F)(F)F)cc1OC(F)F [Example 134]
2. CCn1nc(C(=O)NC[C@H]2CC[C@H](S(C)(=O)=O)CC2)c(Cl)c1-c1ccc(CCCC(F)(F)F)cc1OC [Example 80]
3. Cn1nc(C(=O)NC[C@@]2(O)CC[C@H](S(C)(=O)=O)C[C@@H]2O)c(Cl)c1-c1ccc(CCCC(F)(F)F)cc1OC(F)F (stereo in doubt) [Example 159]
4. COc1cc(N[C@H](C)C(F)(F)F)ccc1-c1c(Cl)c(C(=O)NC[C@H]2CC[C@H](S(C)(=O)=O)CC2)nn1CC(C)C [Example 28]
5. CCn1nc(C(=O)NC[C@H]2CC[C@H](S(C)(=O)=O)CC2)c(Cl)c1-c1c(F)cc(CC(C)C(F)(F)F)cc1F (stereo partly shown) [Example 197]

1.3 nM
6 nM
39 nM
23 nM
21 nM

###

- ASSAY_SYSTEM: human RORγt ligand binding domain (RORγt LBD) (Homo sapiens (Human))
- Sequence (P51449 other isoform, or with tags, fused parts or gaps): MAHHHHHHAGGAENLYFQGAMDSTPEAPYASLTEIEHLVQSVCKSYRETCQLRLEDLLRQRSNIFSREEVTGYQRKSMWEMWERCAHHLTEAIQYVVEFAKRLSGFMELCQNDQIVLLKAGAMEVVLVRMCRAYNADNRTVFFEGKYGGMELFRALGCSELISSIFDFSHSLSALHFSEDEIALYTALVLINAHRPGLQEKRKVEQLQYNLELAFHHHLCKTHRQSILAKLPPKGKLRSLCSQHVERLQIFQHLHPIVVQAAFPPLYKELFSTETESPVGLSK
- ASSAY_DETAILS: RORγt ThermoFluor® assay (thermal shift binding)
- STATED_CONDITIONS: read-out: ThermoFluor® Assay, Kd
PARAMETER_MEASURED: pKd
Numbers only, as −log10 of the molar value.

These solved cases illustrate the format of a correct answer.
CCn1nc(C(=O)NC[C@H]2CC[C@H](S(C)(=O)=O)CC2)c(C)c1-c1ccc(CCCC(F)(F)F)cc1OC(F)F    9.23
CCn1nc(C(=O)NC[C@]2(O)CC[C@@H](S(C)(=O)=O)CC2)c(Cl)c1-c1ccc(CC(C)(C)C(F)(F)F)cc1    8.07
CCCn1nc(C(=O)NC[C@]2(O)CC[C@@H](S(C)(=O)=O)CC2)c(Cl)c1-c1ccc(N[C@H](C)C(F)(F)F)cc1OC    8.14
CCn1nc(C(=O)NC[C@H]2CC[C@H](S(C)(=O)=O)CC2)c(C)c1-c1ccc(N[C@H](C)C(F)(F)F)cc1OC    7.92
CC(C)(O)Cn1nc(C(=O)NC[C@]2(O)CC[C@@H](S(C)(=O)=O)CC2)c(Cl)c1-c1ccc(CC(C)(C)C(F)(F)F)cc1OC(F)F    7.96

Report pKd for each item below.
1. Cn1nc(C(=O)NC[C@H]2CC[C@H](S(C)(=O)=O)CC2)c(Cl)c1-c1ccc(CC(C)(C)C(F)(F)F)cc1OC(F)F
2. CC(C)(O)Cn1nc(C(=O)NC[C@H]2CC[C@H](S(C)(=O)=O)CC2)c(Cl)c1-c1ccc(CC(C)(C)C(F)(F)F)cc1OC(F)F

[9.48, 8.60]

###

Give measured pKd for each item. Keep answers brief.
- ASSAY_SYSTEM: human RORγt ligand binding domain (RORγt LBD) (Homo sapiens (Human))
- ASSAY_DETAILS: RORγt ThermoFluor® assay (thermal shift binding)
- STATED_CONDITIONS: read-out: ThermoFluor® Assay, Kd
Give bare numbers, as −log10 of the molar value.

In the examples that follow, each entry is paired with its recorded pKd.
CCn1nc(C(=O)NC[C@]2(CO)CC[C@@H](S(C)(=O)=O)CC2)c(Cl)c1-c1ccc(CC(C)(C)C(F)(F)F)cc1OC(F)F    9.62
Cc1c(C(=O)NC[C@]2(O)CC[C@@H](S(C)(=O)=O)CC2)nn(C)c1-c1ccc(CCCC(F)(F)F)cc1OC(F)F    7.49
CCn1nc(C(=O)NC[C@]2(O)CC[C@@H](S(C)(=O)=O)CC2)c(Cl)c1-c1ccc(CCC(F)(F)F)cc1Cl    7.92
CCn1nc(C(=O)NC[C@H]2CC[C@H](S(C)(=O)=O)CC2)c(C)c1-c1ccc(CC(C)(C)C(F)(F)F)cc1OC    8.96

Supply recorded pKd for CCn1nc(C(=O)NC[C@H]2CC[C@H](S(C)(=O)=O)CC2)c(Cl)c1-c1ccc(CC(C)(C)C(F)(F)F)cc1Cl here.
9.35

###

Exercise: state measured inhibition at 2 µM for each of the compounds provided.
- ASSAY_SYSTEM: full-length human RORγt (Homo sapiens (Human), UniProt P51449)
- ASSAY_DETAILS: RORγt (full-length human) reporter assay, conditions A or B, HEK293T cells
- Type: cell-based
- STATED_CONDITIONS: HEK-293T; 2 μM compound concentration; read-out: RORγt (FL) Reporter Assay A or B, % inhibition
Numbers only, in %.

Worked examples, 3 compounds total:
CCn1nc(C(=O)NC[C@H]2CC[C@H](S(C)(=O)=O)CC2)c(Cl)c1-c1ccc(OCCC(F)(F)F)cc1OC [Example 213]    77
CCn1nc(C(=O)NC[C@H]2CC[C@H](S(C)(=O)=O)CC2)c(Cl)c1-c1ccc(OCC2CC2(F)F)cc1OC (stereo partly drawn) [Example 209]    82
CCn1nc(C(=O)NC[C@H]2CC[C@H](S(C)(=O)=O)CC2)c(Cl)c1-c1ccc(N[C@H](C)C(F)(F)F)cc1C(F)(F)F [Example 172]    100

For every item below, please supply its inhibition at 2 µM.
1. CCCn1nc(C(=O)NC[C@]2(O)CC[C@@H](S(C)(=O)=O)CC2)c(Cl)c1-c1ccc(C[C@@H](C)C(F)(F)F)cc1OC (single isomer, unassigned) [Example 42]
2. [2H]C([2H])([2H])Oc1cc(CC(C)(C)C(F)(F)F)ccc1-c1c(Cl)c(C(=O)NC[C@]2(O)CC[C@@H](S(C)(=O)=O)CC2)nn1CC [Example 192]
3. CCn1nc(C(=O)NC[C@H]2CC[C@H](S(C)(=O)=O)CC2)c(Cl)c1-c1ccc(CCC(F)(F)F)cc1C(F)(F)F [Example 171]
4. CCn1nc(C(=O)NC[C@H]2CC[C@H](S(C)(=O)=O)CC2)c(Cl)c1-c1c(F)cc(N[C@H](C)C(F)(F)F)cc1F [Example 196]
5. CCn1nc(C(=O)NC[C@]2(O)CC[C@@H](S(C)(=O)=O)CC2)c(Cl)c1-c1ccc(CC(C)(C)C(F)(F)F)cc1OC [Example 45]
6. CCn1nc(C(=O)NC[C@H]2CC[C@H](S(C)(=O)=O)CC2)c(Cl)c1-c1ccc(N[C@H](C)C(F)(F)F)cc1F [Example 181]

101
96
24
101
88
101

###

Record form. Attribute: pIC50. Fill in for each entry.
- ASSAY_SYSTEM: UniProt P51449
- ASSAY_DETAILS: RORγt (full-length human) reporter assay, conditions A or B, HEK293T cells
- Assay type: cell-based
- STATED_CONDITIONS: RORγt (FL) Reporter Assay A or B, IC50, HEK293T cells
Structures can show the parent of a compound that is named as a salt.
Numbers only, as −log10 of the molar value.

Solved entries (count: 6):
CCn1nc(C(=O)NC[C@]2(O)CC[C@@H](S(C)(=O)=O)CC2)c(Cl)c1-c1ccc(C2(O)CCC(F)(F)CC2)cc1OC(F)F    6.66
CC(C)(O)Cn1nc(C(=O)NC[C@H]2CC[C@H](S(C)(=O)=O)CC2)c(Cl)c1-c1ccc(CC(C)(C)C(F)(F)F)cc1OC(F)F    7.89
CCn1nc(C(=O)NC[C@]2(C#N)CC[C@H](S(C)(=O)=O)CC2)c(Cl)c1-c1ccc(N[C@H](C)C(F)(F)F)cc1OC    5.96
CCn1nc(C(=O)NC[C@H]2CC[C@H](S(C)(=O)=O)CN2)c(Cl)c1-c1ccc(CC(C)(C)C(F)(F)F)cc1OC(F)F (stereo in doubt) [Example 9, hydrobromide]    8.04
CCn1nc(C(=O)NC[C@]2(C#N)CC[C@@H](S(C)(=O)=O)CC2)c(Cl)c1-c1ccc(CC(C)(C)C(F)(F)F)cc1    7.39
CCCn1nc(C(=O)NC[C@]2(O)CC[C@@H](S(C)(=O)=O)CC2)c(Cl)c1-c1ccc(N[C@H](C)C(F)(F)F)cc1OC    7.39

Here are 2 molecules. What values of pIC50 were reported for them?
1. CCn1nc(C(=O)NC[C@H]2CC[C@H](S(C)(=O)=O)CC2)c(C#N)c1-c1ccc(CC(C)(C)C(F)(F)F)cc1OC
2. CCn1nc(C(=O)NC[C@H]2CC[C@H](S(C)(=O)=O)CC2)c(Cl)c1-c1ccc(CC(C)(C)C(F)(F)F)cc1F

[7.70, 8.14]

Note pIC50 for the molecule shown: CCn1nc(C(=O)NC[C@]2(O)CC[C@@H](S(C)(=O)=O)CC2)c(Cl)c1-c1ccc(CCCC(F)(F)F)cc1OC(F)F
8.25
